# Method notes: self-splicing fitness, log relative to wild type (ln ratio); higher = more splicing; Tetrahymena group I intron in knt gene, E. coli kanamycin selection, DiMSum; sequences stand for … in CUCUCU…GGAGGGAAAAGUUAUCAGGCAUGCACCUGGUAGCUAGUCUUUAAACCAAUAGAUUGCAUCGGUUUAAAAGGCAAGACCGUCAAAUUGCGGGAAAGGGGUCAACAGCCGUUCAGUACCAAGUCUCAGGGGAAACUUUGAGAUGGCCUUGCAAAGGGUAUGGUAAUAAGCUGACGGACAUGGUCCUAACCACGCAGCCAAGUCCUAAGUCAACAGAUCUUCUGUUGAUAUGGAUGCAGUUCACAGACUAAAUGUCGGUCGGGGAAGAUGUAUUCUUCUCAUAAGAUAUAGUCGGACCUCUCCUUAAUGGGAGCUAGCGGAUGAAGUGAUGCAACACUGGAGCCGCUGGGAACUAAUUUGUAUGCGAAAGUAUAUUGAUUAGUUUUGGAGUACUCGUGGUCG;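 further: selection with 25 µg/mL kanamycin versus none on LB agar overnight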
# Run conditions: 37 °C
Recorded endpoint: self-splicing fitness (ln)
Could you respond with only the numeric value?

The cases that follow already have their self-splicing fitness (ln) on record.
# Sequence string, Assay result
rows = [
    ("CAACAGCAAUAUUACGAUGC", -2.01),
    ("GAUGAGCAAUAUUACGAUCU", -1.86),
    ("ACCGAGCAAUAUUACGACAG", -2.41),
    ("ACCAAGCAAUAUUACGAUGU", -1.03),
    ("CCCUAGCAAUAUUACGGAGG", -2.77),
]

Give the measured self-splicing fitness (ln) of CGACAGCAAUAUUACGGGCA .
0.117

Give the measured self-splicing fitness (ln) of AGAGAGCAAUAUUACGAUUA .
-2.57

Give the measured self-splicing fitness (ln) of AUGUAGCAAUAUUACGUGCG .
-0.122

Give the measured self-splicing fitness (ln) of UAACAGCAAUAUUACGAUGA .
-0.269

====

# Method notes: self-splicing fitness, log relative to wild type (ln ratio); higher = more splicing; Tetrahymena group I intron in knt gene, E. coli kanamycin selection, DiMSum; sequences stand for … in CUCUCU…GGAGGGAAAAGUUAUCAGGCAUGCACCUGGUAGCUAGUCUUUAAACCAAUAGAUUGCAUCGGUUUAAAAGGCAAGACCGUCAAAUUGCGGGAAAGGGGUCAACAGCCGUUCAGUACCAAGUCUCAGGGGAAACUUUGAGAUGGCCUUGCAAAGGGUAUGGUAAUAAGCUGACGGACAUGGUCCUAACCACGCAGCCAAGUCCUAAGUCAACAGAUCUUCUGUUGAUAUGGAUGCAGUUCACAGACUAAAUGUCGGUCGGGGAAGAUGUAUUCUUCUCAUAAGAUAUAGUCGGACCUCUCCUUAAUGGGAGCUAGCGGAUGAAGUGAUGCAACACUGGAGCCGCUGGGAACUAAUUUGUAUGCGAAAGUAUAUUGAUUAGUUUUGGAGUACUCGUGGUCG
# Run conditions: 30 °C
Assign classes using reported self-splicing fitness (ln) values and the ranges lower bin = under -3, middle bin = from -3 up to -1, upper bin = -1 and over, please.

# Sequence string, Assigned label
rows = [
    ("UCGAAGCAAUAUUACGGUUA", "upper bin"),
]

Quick check: band for GUCUAGCAAUAUUACGCAUU
upper bin

Quick check: band for GUAGAGCAAUAUUACGUGUG
upper bin

Quick check: band for GAUGAGCAAUAUUACGUGUG
middle bin

====

# Method notes: self-splicing fitness, log relative to wild type (ln ratio); higher = more splicing; Tetrahymena group I intron in knt gene, E. coli kanamycin selection, DiMSum; sequences stand for … in CUCUCU…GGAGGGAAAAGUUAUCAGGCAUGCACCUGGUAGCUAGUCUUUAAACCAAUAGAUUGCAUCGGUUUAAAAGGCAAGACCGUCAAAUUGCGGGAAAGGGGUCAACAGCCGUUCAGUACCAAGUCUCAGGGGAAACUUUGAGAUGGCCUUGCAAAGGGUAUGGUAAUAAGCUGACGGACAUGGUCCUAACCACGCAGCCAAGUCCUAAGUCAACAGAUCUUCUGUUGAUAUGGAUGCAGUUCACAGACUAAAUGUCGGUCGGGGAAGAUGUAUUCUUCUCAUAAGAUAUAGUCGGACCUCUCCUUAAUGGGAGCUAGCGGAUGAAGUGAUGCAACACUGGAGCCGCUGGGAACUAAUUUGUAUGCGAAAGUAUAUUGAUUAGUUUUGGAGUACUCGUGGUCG
# Run conditions: 37 °C
Assign classes using reported self-splicing fitness (ln) values and the ranges Low: < -2; Medium: ≥ -2 and < -0.9; High: ≥ -0.9, please.

Example cases with answers are listed next.
# Sequence string, Assigned label
records = [
    ("CUGGAGCAAUAUUACGUCGA", "Low"),
    ("CACAAGCAAUAUUACGCCGC", "Low"),
    ("UCCGAGCAAUAUUACGGGUG", "Medium"),
    ("CGCUAGCAAUAUUACGGUCC", "High"),
]

Quick check: band for GCGAAGCAAUAUUACGGGAU
Low

Quick check: band for AUAAAGCAAUAUUACGAGCC
Medium

Quick check: band for CUCUAGCAAUAUUACGAGAU
Low

Quick check: band for GUGAAGCAAUAUUACGGCAU
High

Quick check: band for UGACAGCAAUAUUACGCAGC
Low

Quick check: band for UUGAAGCAAUAUUACGACGG
High

Quick check: band for UAUGAGCAAUAUUACGUACU
Medium

Quick check: band for GGGUAGCAAUAUUACGGCAG
Low

Quick check: band for AUGCAGCAAUAUUACGCUCA
High

Quick check: band for CUACAGCAAUAUUACGACCG
High

Quick check: band for AAACAGCAAUAUUACGGUGC
Low

Quick check: band for UCGGAGCAAUAUUACGCGUA
Medium

Quick check: band for GUGAAGCAAUAUUACGCUCG
High

Quick check: band for CCGCAGCAAUAUUACGACUU
Medium

Quick check: band for CGGCAGCAAUAUUACGUGAA
Medium

Quick check: band for CAUCAGCAAUAUUACGUCGC
Low

Quick check: band for UCCAAGCAAUAUUACGAGCA
High

====

Some sequences, each annotated with its measured self-splicing fitness (ln).
# Method notes: self-splicing fitness, log relative to wild type (ln ratio); higher = more splicing; Tetrahymena group I intron in knt gene, E. coli kanamycin selection, DiMSum; sequences stand for … in CUCUCU…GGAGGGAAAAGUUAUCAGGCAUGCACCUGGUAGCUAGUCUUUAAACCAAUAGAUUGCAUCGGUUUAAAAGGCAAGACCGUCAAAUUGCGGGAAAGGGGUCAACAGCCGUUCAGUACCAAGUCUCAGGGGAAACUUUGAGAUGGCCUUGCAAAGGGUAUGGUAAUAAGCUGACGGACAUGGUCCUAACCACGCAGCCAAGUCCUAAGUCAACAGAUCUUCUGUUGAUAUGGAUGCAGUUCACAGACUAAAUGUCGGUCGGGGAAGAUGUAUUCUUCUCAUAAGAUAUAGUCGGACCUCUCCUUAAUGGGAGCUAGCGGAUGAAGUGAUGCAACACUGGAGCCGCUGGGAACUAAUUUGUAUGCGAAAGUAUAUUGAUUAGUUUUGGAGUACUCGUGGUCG
# Run conditions: 37 °C
Could you respond with only the numeric value?

The cases that follow already have their self-splicing fitness (ln) on record.
# Sequence string, self-splicing fitness (ln)
measured = [
    ("AAGAAGCAAUAUUACGUAAA", -1.14),
    ("CCCGAGCAAUAUUACGAUGU", -2.13),
    ("CUGAAGCAAUAUUACGGUUG", 0.139),
    ("AGUAAGCAAUAUUACGUUAC", -2.61),
    ("ACGAAGCAAUAUUACGCGAG", -0.723),
    ("GCCUAGCAAUAUUACGCGAU", -1.68),
    ("AAACAGCAAUAUUACGGUUU", -2.51),
    ("UACGAGCAAUAUUACGAGUU", -0.892),
    ("GUGUAGCAAUAUUACGCUGA", -1.58),
    ("ACAGAGCAAUAUUACGUCUU", -1.98),
]

Give the measured self-splicing fitness (ln) of CAAGAGCAAUAUUACGCUGG .
-1.99

Give the measured self-splicing fitness (ln) of AUUCAGCAAUAUUACGACGU .
0.146

Give the measured self-splicing fitness (ln) of AGCAAGCAAUAUUACGGCCU .
0.167

Give the measured self-splicing fitness (ln) of CCACAGCAAUAUUACGGAGA .
-1.77

Give the measured self-splicing fitness (ln) of CGUCAGCAAUAUUACGGUUG .
-0.256

Give the measured self-splicing fitness (ln) of AGGUAGCAAUAUUACGGUGA .
-1.06

====

# Method notes: self-splicing fitness, log relative to wild type (ln ratio); higher = more splicing; Tetrahymena group I intron in knt gene, E. coli kanamycin selection, DiMSum; sequences stand for … in CUCUCU…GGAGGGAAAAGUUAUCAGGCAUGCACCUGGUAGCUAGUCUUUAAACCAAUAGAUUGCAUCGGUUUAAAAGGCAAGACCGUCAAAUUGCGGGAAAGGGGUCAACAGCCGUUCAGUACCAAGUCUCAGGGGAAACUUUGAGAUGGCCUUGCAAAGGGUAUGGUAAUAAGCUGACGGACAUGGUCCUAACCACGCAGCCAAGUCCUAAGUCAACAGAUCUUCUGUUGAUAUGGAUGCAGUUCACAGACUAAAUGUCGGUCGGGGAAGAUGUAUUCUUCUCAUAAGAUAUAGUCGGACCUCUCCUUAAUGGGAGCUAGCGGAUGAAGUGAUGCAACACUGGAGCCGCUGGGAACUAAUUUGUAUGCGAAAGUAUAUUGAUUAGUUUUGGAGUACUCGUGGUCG
# Run conditions: 37 °C
Assign classes using reported self-splicing fitness (ln) values and the ranges bottom bin = under -2, middle bin = from -2 up to -1, top bin = -1 and over, please.

# Sequence string, Assigned label
measured = [
    ("GUGAAGCAAUAUUACGCAUC", "middle bin"),
]

Turning now to a further record.
Quick check: band for AGCUAGCAAUAUUACGGUGG
bottom bin
